Literature pIC50 values, system: NS3 (Hepatitis C virus, UniProt A3EZJ3).
Give bare numbers, as −log10 of the molar value.

CC[C@H](NC(=O)[C@H](CC1CCCCC1)NC(=O)[C@@H](NC(=O)[C@H](CC(C)C)NC(=O)c1cnccn1)[C@@H](C)CC)C(=O)C(=O)NCC(=O)NS(=O)(=O)c1cccc(Cl)c1 = 6.60
C=CC1C[C@]1(NC(=O)[C@@H]1C[C@@H](Oc2cc(-c3ccccc3)nc3ccccc23)CN1C(=O)[C@@H](NC(C)=O)C(C)C)C(=O)O (stereo partly specified) = 5.52
CC(=O)N[C@H](C(=O)N[C@H](C(=O)N1CC(Oc2ccnc3ccccc23)CC1C(=O)NC1(C(=O)O)CC1)C(C)C)C1CCCCC1 (single isomer, unassigned) = 5.66
O=C(O)CN1C(=O)/C(=C/c2cc([N+](=O)[O-])ccc2F)SC1=S = 4.19
CC[C@H](NC(=O)[C@@H]1C[C@@](C)(NC(=O)Cc2ccccc2)c2ncc(NCc3cccc(C(F)(F)F)c3)c(=O)n21)B1OC2C3CC(C[C@]2(C)O1)C3(C)C (stereo partly specified) = 5.62
C=CC[C@H](NC(=O)[C@@H]1C[C@@H](Cc2cccc(C)c2)c2c(Cl)nc(NCc3cccc(C(F)(F)F)c3)c(=O)n21)B1OC2CC3CC(C3(C)C)[C@@]2(C)O1 (stereo partly specified) = 6.40
CC[C@H](NC(=O)[C@H](CC1CCCCC1)NC(=O)[C@@H](NC(=O)[C@H](CC(C)C)NC(=O)c1cnccn1)[C@@H](C)CC)C(=O)C(=O)NCC(=O)NS(=O)(=O)c1cc(Cl)cc(Cl)c1 = 6.89
CC[C@H](NC(=O)[C@@H]1C[C@@](C)(NC(=O)Nc2ccccc2-c2ccccc2)c2ncc(NCc3cccc(C(F)(F)F)c3)c(=O)n21)B1OC2C3CC(C[C@]2(C)O1)C3(C)C (stereo partly specified) = 4.52
CC[C@H](C)[C@H](NC(=O)[C@@H](NC(=O)[C@H](CC(=O)O)NC(C)=O)C(C)C)C(=O)N[C@H](C(=O)N1CCC[C@H]1C(=O)N[C@@H](CS)C(=O)O)C(C)C = 4.28
CC[C@H](NC(=O)[C@@H]1C[C@@](C)(NC(=O)Nc2ccccc2)c2ncc(NCc3cccc(C(F)(F)F)c3)c(=O)n21)B1OC2C3CC(C[C@]2(C)O1)C3(C)C (stereo partly specified) = 6.10

Then there is this compound:
Input line: Give its pIC50 value. Item: C=C[C@@H]1C[C@]1(NC(=O)C1CC(Oc2cccc(-c3ccccc3)c2)CN1C(=O)[C@@H](NC(=O)[C@@H](NC(C)=O)C1CCCCC1)C(C)C)C(=O)O (single isomer, unassigned)
Output line: 6.92
